# target desc: human CGRP receptor (Homo sapiens, UniProt O60894+Q16602)
# Construct: SK-N-MC cells that endogenously express the human CGRP receptor; endogenous in cells; host or cells: SK-N-MC cells (membrane homogenates)
# Sequence (Q16602 23-461): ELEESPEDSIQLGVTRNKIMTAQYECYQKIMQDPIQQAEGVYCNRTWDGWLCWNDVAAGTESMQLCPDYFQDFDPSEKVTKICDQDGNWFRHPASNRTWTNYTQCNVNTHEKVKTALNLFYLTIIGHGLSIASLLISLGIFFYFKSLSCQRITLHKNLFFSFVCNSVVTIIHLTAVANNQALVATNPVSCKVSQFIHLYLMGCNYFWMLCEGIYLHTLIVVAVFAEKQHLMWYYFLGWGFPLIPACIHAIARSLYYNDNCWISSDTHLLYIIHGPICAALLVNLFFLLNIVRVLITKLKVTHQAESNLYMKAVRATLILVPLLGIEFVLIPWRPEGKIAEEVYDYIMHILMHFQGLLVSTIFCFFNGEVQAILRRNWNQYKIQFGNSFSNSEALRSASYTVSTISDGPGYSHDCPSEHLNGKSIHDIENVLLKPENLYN
# Sequence (O60894 27-148): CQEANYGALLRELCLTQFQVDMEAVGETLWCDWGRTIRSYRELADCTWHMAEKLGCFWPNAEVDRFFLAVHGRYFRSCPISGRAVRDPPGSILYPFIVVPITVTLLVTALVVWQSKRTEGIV
# protocol notes: [125I]-CGRP radioligand binding assay, SK-N-MC cell homogenates
# run conditions: 40 pM [125I]-CGRP, room temperature
measured property: IC50 (nM)
Write the number in nM without appending the unit.

Provide the documented IC50 with human CGRP receptor (Homo sapiens, UniProt O60894+Q16602) as the system for CC(=O)c1ccc(NC(=O)N2CCC(=O)N3[C@@H]2CN(CCc2cccc(F)c2)C(=O)[C@@H]3CC(=O)OC2[C@H]3C[C@@H]4C[C@@H](C[C@H]2C4)C3)cc1 (stereo partly shown)
5160
